System: OVCAR-8
Assay: NCI tumour cell line growth inhibition, 48 h
The source made the active and inactive calls. Cut-off read from the data, not from the text of the source: active = GI50 up to about 1.1 µM and inactive = higher.
Measured GI50 values are reported for all entries that follow.
Property: GI50

INSERT INTO assay_data (molecule, target_desc, readout_value) VALUES
  ('N#C/C(=C\c1cccc(Cl)c1Cl)c1ccccc1', 'OVCAR-8', '53.3 µM (inactive)'),
  ('O=C1/C(=C/c2cccnc2)SC(=S)N1Cc1ccco1', 'OVCAR-8', '4.7 µM (inactive)'),
  ('COC(=O)c1ccccc1Nc1nc(-c2cccs2)nc2cc(OC)c(OC)cc12', 'OVCAR-8', '15.2 µM (inactive)'),
  ('CCCC(=O)NC1=C(Cl)C(=O)c2ccccc2C1=O', 'OVCAR-8', '5.02 µM (inactive)'),
  ('Cc1nc2ccccc2c(=O)n1NC(=O)c1ccccc1O', 'OVCAR-8', '> 100 µM (inactive)'),
  ('COc1ccc(CN2C(=O)[C@@H]3Cc4c(OC)c(C)c(OC)c(OC)c4[C@H](/C2=C\c2cc(OC)c(OC)c(C)c2OC)N3C(=O)OC(C)C)cc1', 'OVCAR-8', '> 100 µM (inactive)'),
  ('CN(C)CCCNC(=O)CNC(=O)c1cc(NC(=O)c2cc(NC(=O)c3cc(NC(=O)CCNC(=O)c4cc(NC(=O)c5cc(NC(=O)c6nccn6C)cn5C)cn4C)cn3C)cn2C)cn1C', 'OVCAR-8', '> 100 µM (inactive)'),
  ('C[Si](C)(C)c1ccc(-c2sc(-c3ccc([Si](C)(C)C)s3)c3c2C[Si]2(C3)Cc3c(-c4ccc([Si](C)(C)C)s4)sc(-c4ccc([Si](C)(C)C)s4)c3C2)s1', 'OVCAR-8', '> 100 µM (inactive)'),
  ('C[C@H]1CC[P+](Cc2ccccc2)(c2ccccc2)C1 (stereo partly specified)', 'OVCAR-8', '> 100 µM (inactive)'),
  ('COC(=O)C1C(=O)NC2(C)CC1c1ccccc1O2 (stereo unspecified)', 'OVCAR-8', '> 100 µM (inactive)'),
  ('CCC(CCCN)Nc1cc(OC)cc2c(C)ccnc12 (stereo unspecified)', 'OVCAR-8', '21.1 µM (inactive)'),
  ('CCOc1ccccc1NC(=O)C(=O)Cc1nc2ccccc2s1', 'OVCAR-8', '> 100 µM (inactive)'),
  ('COc1cccc2c1OC(c1ccc(Cl)cc1)C([N+](=O)[O-])=C2 (stereo unspecified)', 'OVCAR-8', '1.93 µM (inactive)'),
  ('CC1=C(C(=O)CC(=O)C(=O)Nc2ccc(C)c(C)c2)Sc2ccccc2N1', 'OVCAR-8', '> 100 µM (inactive)'),
  ('COc1cc2c(cc1OC)C1C=NC(C(=O)O)(C2)c2ccccc21 (stereo unspecified)', 'OVCAR-8', '> 100 µM (inactive)'),
  ('O=C1CSC(c2ccccc2[N+](=O)[O-])N1c1ccc(-c2ccc(-n3c(-c4ccccc4)nc4ccccc4c3=O)cc2)cc1 (stereo unspecified)', 'OVCAR-8', '> 100 µM (inactive)'),
  ('COc1ccc(/C(Cl)=C(\C=O)c2ccc(F)cc2)cc1OC', 'OVCAR-8', '21.5 µM (inactive)'),
  ('CNC1=C/C(=N/C2=CC(=N/C(=C\C#N)C(C)(C)O)/OC2(C)C)OC1(C)C', 'OVCAR-8', '9.84 µM (inactive)'),
  ('Cn1ccnc1CCc1ccc(Cl)cc1Cl', 'OVCAR-8', '> 100 µM (inactive)'),
  ('CCOC(=O)[C@H]1C[C@@H](C(=O)c2ccccc2)N2N=C(c3ccc(Br)cc3)C=C[C@H]12', 'OVCAR-8', '> 100 µM (inactive)'),
  ('O/N=N/c1ccc(-c2ccccc2)cn1', 'OVCAR-8', '15 µM (inactive)'),
  ('Cc1ccc(S(=O)(=O)NC(=O)NCCc2ccc(O)c(O)c2)cc1', 'OVCAR-8', '97.3 µM (inactive)'),
  ('CSC12c3cc(C)n(-c4ccc(I)cc4)c3CC(C)(C)CN1C(=O)C2Oc1ccccc1 (stereo unspecified)', 'OVCAR-8', '> 100 µM (inactive)'),
  ('CC12CC1C(c1cccc([N+](=O)[O-])c1)(c1cccc([N+](=O)[O-])c1)N=N2 (stereo unspecified)', 'OVCAR-8', '25.1 µM (inactive)'),
  ('CCOC(=O)C1CC(=O)C=C2CCCCC21 (stereo unspecified)', 'OVCAR-8', '> 100 µM (inactive)'),
  ('OCCCCCCCCCCCOc1ccc(C2OCC3(CO2)COC(c2ccc(OCCCCCCCCCCCO)cc2)OC3)cc1 (stereo unspecified)', 'OVCAR-8', '> 50 µM (inactive)'),
  ('CC1(C)OCC([C@H]2CC23SCCCS3)O1 (stereo partly specified)', 'OVCAR-8', '> 100 µM (inactive)'),
  ('COC(=O)C1=NC(=S)NC(c2ccccc2)C1c1nc2ccccc2s1 (stereo unspecified)', 'OVCAR-8', '> 100 µM (inactive)'),
  ('COC(=O)c1c[nH]c(=O)[nH]c1=O', 'OVCAR-8', '> 100 µM (inactive)'),
  ('Nc1ccc(C(=O)CC2(O)C(=O)Nc3ccccc32)cc1 (stereo unspecified)', 'OVCAR-8', '> 100 µM (inactive)'),
  ('O=[N+]([O-])c1ccc(NC(=S)Nc2ccccn2)cc1', 'OVCAR-8', '31.5 µM (inactive)'),
  ('O=C(/C=C/c1ccccc1Cl)c1ccc(Cl)c(Cl)c1', 'OVCAR-8', '17.7 µM (inactive)'),
  ('O=C1NC(Cc2ccc(O)cc2)C(=O)N2CCCC12 (stereo unspecified)', 'OVCAR-8', '> 100 µM (inactive)'),
  ('Cc1ccc(S(=O)(=O)N2C[C@](O)(c3ccccc3)[C@H]2C)cc1', 'OVCAR-8', '> 100 µM (inactive)'),
  ('COC(=O)C(C(=O)C(=O)Nc1nnc(S)[nH]1)c1csc(-n2nc(-c3ccccc3)cc2-c2ccccc2)n1 (stereo unspecified)', 'OVCAR-8', '> 100 µM (inactive)'),
  ('CCCCCCCCCCCCCCNCC(OCC)OCC', 'OVCAR-8', '18.5 µM (inactive)'),
  ('O=c1c(-c2c(-c3ccccc3)oc3ccc(Cl)cc3c2=O)c(-c2ccccc2)oc2ccc(Cl)cc12', 'OVCAR-8', '> 74.1 µM (inactive)'),
  ('C[C@@H](c1ccccc1)N1CN(C(=O)OCc2ccccc2)C(CO)C1=O (stereo partly specified)', 'OVCAR-8', '> 100 µM (inactive)'),
  ('Cc1ccc(N2C(=O)C3CSCN3C2=O)cc1 (stereo unspecified)', 'OVCAR-8', '> 100 µM (inactive)'),
  ('O=C1CC(NC(=O)C(F)(F)F)c2c1csc2Br (stereo unspecified)', 'OVCAR-8', '> 100 µM (inactive)'),
  ('CCOC(=O)c1cc2c([nH]1)c(OC(C)=O)cc1c2ccn1Cc1ccccc1', 'OVCAR-8', '> 100 µM (inactive)');

These entries and their values trace back to ChEMBL document CHEMBL1201862.
